Listing of entries alongside the reported inhibition in vivo at 1 mg/kg.
System: Rattus norvegicus
Assay: inhibition of histamine stimulated gastric secretion in lumen perfused stomach of anesthetized rats at 1 mg/kg intravenously
Type: functional
Conditions: route intravenous
Response body: numeric value in %, unit text excluded.

As a guide, the following entries are already answered.
compound	attribute_measured	reading_unit	quantitative_result
CC(=O)NCc1ccc(-c2csc(NC3=NCCN3)n2)o1	inhibition in vivo at 1 mg/kg	%	18
CC(=O)NCc1ccc(-c2csc(CN(C)C)n2)o1	inhibition in vivo at 1 mg/kg	%	4
CC/N=C(\N)Nc1nc(-c2ccc(CNC(C)=O)o2)cs1	inhibition in vivo at 1 mg/kg	%	79

Task item: Provide the documented inhibition in vivo at 1 mg/kg with Rattus norvegicus as the system for "CCCCCC/N=C(\N)Nc1nc(-c2ccc(CNC(C)=O)o2)cs1"
Reply: 44

Task item: Provide the documented inhibition in vivo at 1 mg/kg with Rattus norvegicus as the system for "CCCC/N=C(\N)Nc1nc(-c2ccc(CNC(C)=O)o2)cs1"
Reply: 45

Task item: Provide the documented inhibition in vivo at 1 mg/kg with Rattus norvegicus as the system for CN/C(=N\CCSCc1nc[nH]c1C)NC#N [CIMETIDINE]
Reply: 53

----------
Tested on: Rattus norvegicus
Assay: inhibition of histamine stimulated gastric secretion in lumen perfused stomach of anesthetized rats at 1 mg/kg intravenously
Assay type: functional
Conditions: route intravenous
# if value of inhibition in vivo at 1 mg/kg reaches 20%, tag Yes; if it stays below, tag No

Please review the following examples before continuing.
smiles_repr	group_label
CC(=O)NCc1ccc(-c2nc(N=C(N)N)sc2C)o1	No
CC(=O)NCc1ccc(-c2csc(/N=C(\N)S)n2)o1	No
CCCCNC(=O)Nc1nc(-c2ccc(CNC(C)=O)o2)cs1	No
C/N=C(\N)Nc1nc(-c2ccc(CNC(C)=O)o2)cs1	Yes
CCC/N=C(\N)Nc1nc(-c2ccc(CNC(C)=O)o2)cs1	Yes

With those in mind, consider the next molecule.
Task item: Hello, I need to know if "CC(=O)NCc1ccc(-c2csc(N/C(N)=N/C(C)C)n2)o1" has measured inhibition in vivo at 1 mg/kg not below 20%. Thanks!
Reply: Yes

----------
Listing of entries alongside the reported log10 of MIC.
Test system: Helicobacter pylori
Test: Evaluated for antimicrobial activity against Helicobacter pylori
Assay type: functional
Give log10 of MIC, with MIC taken in µg/mL.

As a guide, the following entries are already answered.
smiles_repr	log10 of MIC
CCCC/N=C(\N)Nc1nc(-c2ccc(CNC(C)=O)o2)cs1	-0.68
C/N=C(\N)Nc1nc(-c2ccc(CNC(C)=O)o2)cs1	1.10
CN/C(=N\CCSCc1nc[nH]c1C)NC#N	3.05
CC/N=C(\N)Nc1nc(-c2ccc(CNC(C)=O)o2)cs1	0.50
CCC/N=C(\N)Nc1nc(-c2ccc(CNC(C)=O)o2)cs1	0.22

Task item: Given the entry "CC(=O)NCc1ccc(-c2nc(N=C(N)N)sc2C)o1" , report its measured log10 of MIC.
Reply: 1.88

Task item: Given the entry "CC(=O)NCc1ccc(-c2csc(N/C(N)=N/C(C)C)n2)o1" , report its measured log10 of MIC.
Reply: 0.46

Task item: Given the entry "CCCCCC/N=C(\N)Nc1nc(-c2ccc(CNC(C)=O)o2)cs1" , report its measured log10 of MIC.
Reply: -0.96

Task item: Given the entry "Cc1ncc([N+](=O)[O-])n1CCO" , report its measured log10 of MIC.
Reply: 0.73
